Measured inhibition, listed per entry for reference.
Test: StAR promoter reporter inhibitors, counter-screen for LRH-1 inverse agonist project, cell-based, luminescence, high throughput (AID 651611)
Conditions: StAR promoter luciferase reporter counterscreen, at 3.6 µM, hits give high values
Active and inactive are the calls of the source. Rule as the data show it: active = inhibition above about 28%; inactive = the rest.

Worked examples, 6 compounds total:
* CC1(C)CC2CC(C)(CN2S(=O)(=O)c2ccc(C(=O)Nc3ccc(S(=O)(=O)N4CCOCC4)cc3)cc2)C1 (stereo unspecified) | 22.1% (inactive)
* O=C(Nc1ccc(Oc2ccccc2)cc1)c1csc([C@H]2C[C@H](O)[C@@H](CO)O2)n1 | 27.6% (inactive)
* COc1cc(NC(=O)Cn2ccsc2=N)c(C)cc1[N+](=O)[O-] | 11.8% (inactive)
* CCc1cccc2sc(N3CCN(C(=O)c4ccc([N+](=O)[O-])o4)CC3)nc12 | 3.02% (inactive)
* O=C(c1ccccc1Br)N1CCN(c2ccc([N+](=O)[O-])c(N3CCOCC3)c2)CC1 | 8.23% (inactive)
* CCc1c(C)nc2ncnn2c1NCCc1ccc(OC)cc1 | 46.9% (active)

Continue with the next compound.
Supply inhibition value. Item: O=C(c1ccccc1)c1c2c(cc3sc4ccccc4[n+]13)-c1cccc3cccc-2c13
47.8% (active)

----------
Biological target: Peroxisome proliferator-activated receptor gamma (Homo sapiens)
Assay: agonists of PPARgamma SRC-2 coactivator recruitment, confirmation, biochemical, HTS (AID 1297);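 also: 0% = vehicle alone and 100% = reference agonist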
Conditions: biochemical SRC-2 recruitment by PPARgamma; at 8 µM; hits give high values
The other results are listed elsewhere or left out.
value kind: activation (%)
// note: answer is a bare numeric in %

Worked examples, 5 molecules total:
- Nc1ccc(Nc2ccccc2)cc1: 10.1
- O=C(O)Cc1sc(-c2ccccc2)nc1-c1cccs1: 42.6
- CC(C(=O)N1CCOCC1)N1c2cccc3cccc(c23)S1(=O)=O (stereo not given): -0.94
- CC(=O)n1c(C=Nc2ccccc2)c(O)c2ccccc21: 2.33
- CCc1c(-c2ccccc2)nc(N)c(C#N)c1-c1cccs1: 11.1

Supply activation value. Item: COc1ccc2c(Cl)c(-c3nnco3)sc2c1
20.4

Supply activation value. Item: Cc1ccccc1-c1n[nH]c(=S)n1/N=C/c1ccc(-c2ccccc2Br)o1
33.5

Supply activation value. Item: Fc1ccc(COc2cccc(-c3n[nH]c(=S)o3)c2)cc1
51.6

Supply activation value. Item: CSc1c(SCc2ccccc2)cnn(Cc2ccccc2)c1=O
34.4

Supply activation value. Item: CCn1c(SCC(=O)Nc2cccc(F)c2)nnc1-c1cc2cc(Br)ccc2o1
18

----------
Assay: StAR promoter reporter inhibitors, counter-screen for LRH-1 inverse agonist project, cell-based, luminescence, high throughput (AID 651611)
Conditions: StAR promoter luciferase reporter counterscreen, at 3.6 µM, hits give high values
Measured inhibition, listed per entry for reference.
// note: answer is a bare numeric in %

- CN(C)CCC(=O)N1C/C(=C/c2ccccc2)C(=O)/C(=C\c2ccccc2)C1: 61.4
- COc1cccc(NC(=O)N(C)C[C@H]2Oc3cc(C#Cc4ccncc4)ccc3S(=O)(=O)N([C@H](C)CO)C[C@H]2C)c1: 28

Supply inhibition value. Item: C=CCNC(=S)N/N=C(\C)c1ccccn1
89.3

Supply inhibition value. Item: CCc1nc(SCC(=O)N2CCc3cc(OC)c(OC)cc3C2)c(C#N)cc1C
3.35

Supply inhibition value. Item: O=C1c2cc(F)ccc2-n2c1nc1ccccc1c2=O
50.5

Supply inhibition value. Item: COc1ccc(NC(=O)CSc2nnc(Cc3ccccc3)c(=O)n2N)c(OC)c1
5.02

Supply inhibition value. Item: CCCOc1ccc2oc(=O)c3c(c2c1)CCCN3C(=O)CN1CCN(c2ncccn2)CC1
6.16

----------
Test: StAR promoter reporter inhibitors, counter-screen for LRH-1 inverse agonist project, cell-based, luminescence, high throughput (AID 651611)
Conditions: StAR promoter luciferase reporter counterscreen, at 3.6 µM, hits give high values
Measured inhibition, listed per entry for reference.
// note: answer is a bare numeric in %

Worked examples, 3 compounds total:
* O=C(c1ccccc1)c1cc(-c2ccccn2)c(N2CCOCC2)s1 | -8.68
* COc1ccc(NC(=O)CN2C(=O)NC(C)(c3ccc(C)cc3)C2=O)c([N+](=O)[O-])c1 (stereo not drawn) | 9.06
* CC(C(=O)N1CCCc2c1c(=O)oc1ccc(O)cc21)N1CCc2ccccc2C1 (stereo not drawn) | 3.35

Supply inhibition value. Item: COc1ccc(CCNC(=O)COC(=O)C23CC4CC(CC(C4)C2)C3)cc1
17.5

Supply inhibition value. Item: O=C(CSc1nnc(Cc2cccs2)n1Cc1ccco1)Nc1ccc(Cl)cc1Cl
9.49

Supply inhibition value. Item: COc1ccc(/C=N/NC(=O)c2cc(-c3ccc(C)cc3C)nc3ccccc23)cc1COC(C)=O
1.71

Supply inhibition value. Item: O=C(Cn1cc(COc2ccc(C(=O)c3ccccc3)cc2)nn1)c1ccc(O)cc1
25.8

Supply inhibition value. Item: Nc1cc2ccncc2c2ccccc12
8.54

Supply inhibition value. Item: O=C(Nc1ccccc1)Nc1cc(OCC(F)(F)F)cc(OCC(F)(F)F)c1
22.9

Supply inhibition value. Item: O=C(N/N=C/c1c(O)ccc2ccccc12)c1[nH]ncc1Br
77.2

----------
Target: Nuclear receptor coactivator 3 (Homo sapiens)
Experiment: SRC3 coactivator transcriptional activity inhibitors, confirmation, cell-based, luminescence, quadruplicate (AID 588792);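 also: 0% = DMSO treated cells and 100% = gossypol at 36 µM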
Conditions: HEK293 GAL4-SRC3 luciferase reporter, at 3.6 µM, hits give high values
Binary call on inhibition: true from 20% upward, false beneath that.

Determine whether this compound has inhibition no lower than 20%: CCc1ccn2cc(-c3cc(-c4ccccc4)no3)nc2c1
false

Determine whether this compound has inhibition no lower than 20%: O=C(NC(=S)/C(=C1\CCCCCN1)[N+](=O)[O-])c1ccccc1
true

Determine whether this compound has inhibition no lower than 20%: CCSc1ccccc1C(=O)NCc1ccc2c(c1)OCO2
false

Determine whether this compound has inhibition no lower than 20%: CN(C)c1ccc(C=c2c3ccccc3n3c2cc(-c2ccccc2)[n+]3C)cc1
true

----------
Biological target: Nuclear receptor subfamily 5 group A member 2 (Homo sapiens) (UniProt O00482)
Sequence (O00482 whole entry, looked up): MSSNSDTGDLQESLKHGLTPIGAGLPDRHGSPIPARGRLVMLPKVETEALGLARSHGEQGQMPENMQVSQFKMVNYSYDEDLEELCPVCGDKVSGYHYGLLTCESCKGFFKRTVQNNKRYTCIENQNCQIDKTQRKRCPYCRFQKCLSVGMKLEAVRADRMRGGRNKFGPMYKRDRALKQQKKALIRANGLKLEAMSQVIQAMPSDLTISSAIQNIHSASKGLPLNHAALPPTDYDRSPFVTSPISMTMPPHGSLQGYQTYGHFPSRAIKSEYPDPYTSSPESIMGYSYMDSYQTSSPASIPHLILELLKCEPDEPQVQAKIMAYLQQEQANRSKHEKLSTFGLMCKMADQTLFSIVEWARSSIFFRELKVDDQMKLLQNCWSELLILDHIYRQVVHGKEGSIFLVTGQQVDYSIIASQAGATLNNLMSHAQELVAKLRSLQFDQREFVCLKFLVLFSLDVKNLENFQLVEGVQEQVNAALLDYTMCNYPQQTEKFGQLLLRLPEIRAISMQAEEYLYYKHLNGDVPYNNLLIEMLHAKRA
Assay: LRH-1 (NR5A2) inverse agonists, retest, confirmation, cell-based, luminescence (AID 651613);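 also: HEK293T cells co-transfected with LRH-1 and StAR promoter luciferase reporter; 0% = vehicle wells and 100% = parental cells lacking receptor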
Details: cell-based LRH-1 luciferase reporter, inverse agonism; at 3.6 µM
Activity calls are given as the source filed them. No stated cut-off is given here; in the data, active means inhibition above about 42%; inactive means the rest.
Could you please pick one outcome from this set? Yes = active, No = inactive

Study these solved cases before continuing.
• CC(NNC(=S)N1CCN(c2ccccn2)CC1)c1nccc2ccccc12 (configuration not stated) = Yes
• COc1cccc(/C=N/NC(=O)c2[nH]c(C)c(C(=O)N/N=C/c3cccc(OC)c3O)c2C)c1O = No
• COc1ccc(N=C2NN=C(c3c(C)[nH]c4ccccc34)CS2)cc1 = Yes
• COC(=O)c1ccc(NC(=O)CSc2ccc(-c3ccccn3)nn2)cc1 = Yes
• Cc1cc(N2CCN(C(=O)c3ccco3)CC2)n2nc(-c3cccc(F)c3)cc2n1 = Yes
• Cc1ccc(S(=O)(=O)NCc2ccncc2)cc1 = Yes

Dear colleague, could you share the recorded outcome for NCCCNc1nc(N)c([N+](=O)[O-])c(NC2CCCCC2)n1 when you have a moment?
Yes

Dear colleague, could you share the recorded outcome for CCN1/C(=C/C=C/c2oc3ccc(-c4ccccc4)cc3[n+]2CC)Oc2ccc(-c3ccccc3)cc21 when you have a moment?
Yes

Dear colleague, could you share the recorded outcome for Cc1cccnc1NC(=O)c1ccc([N+](=O)[O-])o1 when you have a moment?
Yes

Dear colleague, could you share the recorded outcome for Cc1ccc2oc(/N=C(\N)NC(=O)C(C)(C)C)nc2c1 when you have a moment?
Yes

Dear colleague, could you share the recorded outcome for CN1CC(=O)N(CC(=O)Nc2ccc(N3CCOCC3)cc2)C1=O when you have a moment?
Yes

Dear colleague, could you share the recorded outcome for CCC(NC(=O)CCl)c1ccc(C)cc1 (configuration not stated) when you have a moment?
Yes

Dear colleague, could you share the recorded outcome for Cc1ccc(C)c(NC(=O)CSc2nnc(-c3ccccc3)n2N)c1 when you have a moment?
Yes

Dear colleague, could you share the recorded outcome for CCOc1ccc(NC(=O)CSc2nc3ccccc3c(=O)n2CCCC(=O)NCC2CCCO2)cc1 (configuration not stated) when you have a moment?
Yes

Dear colleague, could you share the recorded outcome for O=C(NCc1cccnc1)/C(=C\c1ccc(-c2cccc(Cl)c2)o1)S(=O)(=O)c1ccccc1 when you have a moment?
Yes

Dear colleague, could you share the recorded outcome for O=C(CCl)Nc1ccccc1C(=O)c1ccccc1 when you have a moment?
Yes

Dear colleague, could you share the recorded outcome for CCNC(=S)N1CCN(c2nc(CC)nc3sc4c(c23)CCCC4)CC1 when you have a moment?
Yes

----------
Measured inhibition, listed per entry for reference.
Test: VP16 transactivation inhibitors, counter-screen for SRC1 inhibitor project, cell-based, luminescence, high throughput (AID 588824)
Settings: cell-based VP16 transactivation luciferase luminescence; at 3.6 µM; hits give high values
The source made the active and inactive calls. Cut-off read from the data, not from the text of the source: active = inhibition above about 25%; inactive = the rest.

Worked examples, 5 compounds total:
- Cc1c(C)n2c(SCC(=O)NCc3ccc4c(c3)OCO4)nnc2[nH]c1=O: -7.94% (inactive)
- O=C1C(Nc2ccc(O)cc2)=C/C(=N/S(=O)(=O)c2cccs2)c2ccccc21: 68% (active)
- CC(=O)c1ccc(Nc2ncnc3ccc(Br)cc23)cc1: 37.8% (active)
- Brc1ccc2ncnc(NCc3ccco3)c2c1: 31.2% (active)
- CC(=O)c1cccc(NC(=O)Nc2cccnc2)c1: 33.6% (active)

Continue with the next compound.
Supply inhibition value. Item: O=C(Nc1ccc([N+](=O)[O-])cc1)c1ccc(Cn2cc([N+](=O)[O-])cn2)cc1
56.1% (active)

Hello, the source for this data is PubChem BioAssay, in case you need it.
